Experiment: soluble on expression in E. coli; label from the status in PepcDB or PDB records
reportedMetric: soluble on expression in E. coli

Sample answers from the record:
Request: GET /values?readout=soluble on expression in E. coli&item= MGSDKIHHHHHHMTAGGLHNGSGGMESARHCRELVERWLADGSFDARLPEVVRLRGVLQPEQYHAEGDAWTHTMLAMEAVPDDADPRVFWGVLLHDIGKAETTAFIKGRWRSWGHAEAGAGEVSAIMTRLGFPHLAADVTWLVKHHTFHFSWNLTPGARLSPKQRRFMEHPLFPLLLEVCDADAAGSRGGSDKGVKIGQLADMYADVTKGWADS
Result: not soluble

Request: GET /values?readout=soluble on expression in E. coli&item= MHRVHGTLHASFTIECRNMFKRFFLALIGVGILLSESTQASESPPYSMVLLTENFPPFNMAVDGKNFAQENNIDGIAAEVVREMFKRANIGYSMTLRFPWDRVYKLALDKPGYGVFSTTRLPEREKLFKWIGPLGSYDWIMLARGDSPITLASLEQAKDYRIGAYKGDAIGERLNAMGLNPILMLRDRDNVKKLANGQIDLWAVGDPVGRYLAKLEGVSGFKTALRFNSAELYLAVNKSTPDEIVNRLQAALDQMRTEGWVDAVKARYQLEHHHHHH
Result: soluble

Request: GET /values?readout=soluble on expression in E. coli&item= MGSDKIHHHHHHMAVNRFRLENGKEELALYQIQLLKDQSHNENEEDKVSSSSFRQRILGNLLQPPNERPELPSGLYVLGLTGISGSGKSSVAQRLKNLGAYIIDSDHLGHRAYAPGGPAYQPVVEAFGTDILHKDGTINRKVLGSRVFGNKKQMKILTDIVWPVIAKLAREEMDVAVAKGKTLCVIDAAMLLEAGWQSMVHEVWTVVIPETEAVRRIVERDGLSEAAAQSRLQSQMSGQQLVEQSNVVLSTLWESHVTQSQVEKAWNLLQKRLPKAYQTRN
Result: soluble

Request: GET /values?readout=soluble on expression in E. coli&item= MGSDKIHHHHHHMLTRQRPLHGIGTTQAAVLKHLRRNGIASRAELAELCGVTQAAVSMMTRDLIARGIVIQGARRQSQRGAPHIDLMLAGNIGYALGVHANSYSLTVTLLDFCGNRIGEQQLEGPYDRFSDIQTAIKSLRTDLLTSNGIDEGLLIGAAVAMPTRFRHGTAFLDLAEEVVSWAGSDLASTLRETLDCPVMIENDANAAAMGELALGNASGHDNFAYLYLSEGIGSGIIIGKELYRGNLGNAGEVGALRARGLSRPSFDDLAAWCKEHQGHIPKGRSSDQWTAYLQANPTVLDAWLRRAGPELATLAFMVTAVLAPSAIYIGGTLPRLVREKLAPWLDFSTSNPFDGARVIQPDILIPQISAVDAVAFGAAAMILHSVPGNPGL
Result: not soluble

Request: GET /values?readout=soluble on expression in E. coli&item= MNCVCGSGKTYDDCCGPLLARTRSAASPEALMRSRYAAYALKDFDYIVETTDPERRDLFDHDVNRAWMEESDFLELRVLGSSEKGSRGTVEFIARFRRGGGPEQSHHERSQFRKARGRWYFSEGEAVD
Result: soluble

Next:
Request: GET /values?readout=soluble on expression in E. coli&item= MARLNVNPTRMELSRLKKQLTTATRGHKLLKDKQDELMRRFIALVKENNELRIQVEQEVTDALSNFVLANATLNEAFIEELVAIPAEKVELEIIEQNILSVPVPKMIFDYDESVQEAPLDYGYVNSNSELDQAFAKISSILPKLLALANVEKTCQLLSKEIEKTRRRVNALEYMTIPQLEETIYYIQMKLEENERGEITRLIKIKSMNKENLEHHHHHH
Result: not soluble

Request: GET /values?readout=soluble on expression in E. coli&item= MKISVITINYNNGEQLEATIQSVVSNVTVLRELLGEKAEYIVIDGGSVDCSVSVLQKYSEYISYWISEKDKGIYHAMNKGISVAQGEYCFFLNSGDTFYEDDTLKKALLFLKEDFVCGNAVLKYAGGINEWSAPEIVNTLFFMQRFSVCHQSLFIRTELLKSHPYNETLMIVADYEQMFYEIAVNHRSYKKIDLTICYYGCDGVSSDHEKADAEKRSVINEFRYLGYIEPDELWNVVSKLKIGTRKYRLLLSLAKCLTSSPKYWVRLEHHHHHH
Result: soluble
